# protein stability index annotations
B1: FBXO3 (parent)
chain: AGGFQQRQGLKYCLPLTFCIHTGL

variants of: B1; assay: protein stability index of a GFP-peptide fusion (GPS, HEK-293T) (PSI 1-6); higher = more stable; conditions: c terminus: a fixed tail appended;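 note: lentivirally expressed fusions sorted by FACS into six bins by GFP to DsRed ratio, PSI derived from sequencing read proportions per bin multiplied by bin number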
// response body must contain only the number

RESIDUE_CHANGE | protein stability index
G23M | 2.31
L24M | 2.99
F4Q | 2.37

Noted for T17Q : its protein stability index reads 2.4

Noted for I20L : its protein stability index reads 3.23

Noted for H21D : its protein stability index reads 2.99

Noted for C13W : its protein stability index reads 3.43
